Catalogue of binders with associated IC50 of lowering Malat1 ncRNA expression level in the mPth1R-stably expressing cell line
Molecular target: T1, mouse Pth1R (mPth1R), stably expressed on NIH/3T3 cells (mouse, UniProt P41593 27-591)
T1 sequence (looked up): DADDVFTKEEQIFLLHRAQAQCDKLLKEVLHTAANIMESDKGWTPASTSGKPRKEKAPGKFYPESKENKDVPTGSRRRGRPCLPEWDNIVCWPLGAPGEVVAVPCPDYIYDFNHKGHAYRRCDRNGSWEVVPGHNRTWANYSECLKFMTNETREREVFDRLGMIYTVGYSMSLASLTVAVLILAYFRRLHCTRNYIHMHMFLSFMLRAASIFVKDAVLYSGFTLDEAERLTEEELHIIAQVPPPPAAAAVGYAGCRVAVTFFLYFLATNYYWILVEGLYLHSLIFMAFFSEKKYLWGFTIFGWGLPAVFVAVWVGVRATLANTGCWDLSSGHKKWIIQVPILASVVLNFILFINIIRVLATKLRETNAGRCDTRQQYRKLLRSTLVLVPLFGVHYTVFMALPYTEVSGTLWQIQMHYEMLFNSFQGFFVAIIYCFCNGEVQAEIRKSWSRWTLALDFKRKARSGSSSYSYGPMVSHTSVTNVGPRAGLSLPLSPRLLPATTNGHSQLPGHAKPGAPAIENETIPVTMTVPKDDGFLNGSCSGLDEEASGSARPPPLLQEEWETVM
Assay: cell-based or functional assay
Where no end group is shown, it is not given here. [ ]: non-standard residue; d: D form. Aib = CC(C)(N)C(=O)O
endpoint-label: IC50 of lowering Malat1 ncRNA expression level in the mPth1R-stably expressing cell line (nM)

INSERT INTO results (binder, readout_units, data_value) VALUES
  ('AVSEHQLLHDKGKSIQDLRRRELLEKLLAKLHKA (not fully specified (residue 33)) [L001-ASO]', 'nM', 1.25),
  ('DKGKSIQDLRRRELLEKLLAKLHKA (not fully specified (residue 24); printed as DKGKSIQDLRRRELLEKLLAKLH(K-PEG3-Unit)A) [L010-HDO6]', 'nM', 167),
  ('SEHQLLHDKGKSIQDLRRRELLEKLLAKLHKA (not fully specified (residue 31)) [L003-HDO6]', 'nM', 88.9),
  ('HQLLHDKGKSIQDLRRRELLEKLLAKLHKA (not fully specified (residue 29); printed as HQLLHDKGKSIQDLRRRELLEKLLAKLH(K-PEG3-Unit)A) [L005-HDO6]', 'nM', 121),
  ('AVSEHQLLHDKGKSIQDLRRRELLEKLL[Aib]KLHTAK (not fully specified (residue 35); also: prints K at position 33) [L021-HDO6]', 'nM', 46.8);
